Taken from paper PMC10786891.

- Target Entity: T1, EsCas13d, nuclease-dead (Eubacterium siraeum, UniProt B0MS50, R295A;H300A;R849A;H854A)
- T1 sequence: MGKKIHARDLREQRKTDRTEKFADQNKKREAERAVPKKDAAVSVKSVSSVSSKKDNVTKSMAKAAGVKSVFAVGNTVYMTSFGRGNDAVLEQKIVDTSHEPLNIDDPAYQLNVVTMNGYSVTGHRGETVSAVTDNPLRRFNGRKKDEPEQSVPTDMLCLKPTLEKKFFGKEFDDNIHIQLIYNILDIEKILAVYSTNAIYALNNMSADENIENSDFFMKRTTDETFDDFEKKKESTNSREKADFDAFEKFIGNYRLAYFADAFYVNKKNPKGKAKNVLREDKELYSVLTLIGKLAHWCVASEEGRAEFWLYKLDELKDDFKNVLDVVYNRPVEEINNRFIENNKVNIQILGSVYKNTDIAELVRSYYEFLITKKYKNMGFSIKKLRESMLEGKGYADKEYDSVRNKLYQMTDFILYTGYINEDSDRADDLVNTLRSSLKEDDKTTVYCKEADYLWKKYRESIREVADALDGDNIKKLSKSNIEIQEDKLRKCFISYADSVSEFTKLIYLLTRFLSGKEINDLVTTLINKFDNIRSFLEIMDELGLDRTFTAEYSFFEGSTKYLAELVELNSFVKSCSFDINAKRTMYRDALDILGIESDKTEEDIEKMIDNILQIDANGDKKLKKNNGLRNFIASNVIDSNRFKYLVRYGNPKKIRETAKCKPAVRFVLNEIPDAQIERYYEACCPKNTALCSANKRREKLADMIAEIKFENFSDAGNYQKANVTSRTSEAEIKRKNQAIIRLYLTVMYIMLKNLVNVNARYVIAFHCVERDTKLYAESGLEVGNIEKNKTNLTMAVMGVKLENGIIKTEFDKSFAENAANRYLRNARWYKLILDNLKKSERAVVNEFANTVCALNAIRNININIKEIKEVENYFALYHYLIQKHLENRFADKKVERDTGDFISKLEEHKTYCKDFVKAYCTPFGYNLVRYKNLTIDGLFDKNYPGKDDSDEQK
- Measurement Description: crRNA (strand 1, pre-loaded); Mg2+; 40 mM Tris-HCl pH 7.5, 150 mM NaCl, 6 mM MgCl2, 1 mM DTT, 0.1% Tween-20, 0.2 mg/ml BSA; 25 C; 10 min per concentration, then washed
- Stated Conditions: tags: His6-TwinStrep-SUMO cleaved; N-terminal SNAP kept (SNAP-Surface 488); label: 3' end held by stalled T7 RNA polymerase
Measure Name: Kd (nM)

target 1 C6G,G12U (mixed) RNA 1: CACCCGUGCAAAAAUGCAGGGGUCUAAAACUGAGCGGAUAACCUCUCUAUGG RNA 2: GGGAAUGGAUCCACAUCUACGAAUUCGUACCAUAGAGAGUUUAUCGGCUCACCGAGAUCGGAAGAGCACACGU: 13.7
target 3 A13G (mixed) RNA 1: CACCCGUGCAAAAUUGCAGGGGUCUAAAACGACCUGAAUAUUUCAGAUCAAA RNA 2: GGGAAUGGAUCCACAUCUACGAAUUCGUUUUUGAUCUGGAAUAUUCAGGUCUGCAGAUCGGAAGAGCACACGU: 69
target 2 MT 5'PFS CGG 3'PFS CUC (mixed) RNA 1: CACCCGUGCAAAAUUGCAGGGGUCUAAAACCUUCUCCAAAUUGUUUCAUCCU RNA 2: GGGAAUGGAUCCACAUCUACGAAUUCCGGAGGAUGAAACAAUUUGGAGAAGCUCAGAUCGGAAGAGCACACGU: 7.2
target 3 G3U,U21A (mixed) RNA 1: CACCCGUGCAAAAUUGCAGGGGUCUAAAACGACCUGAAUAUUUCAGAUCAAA RNA 2: GGGAAUGGAUCCACAUCUACGAAUUCGUUUAUGAUCUGAAAUAUUCAGUUCUGCAGAUCGGAAGAGCACACGU: 87.5
